# TARGET_UNDER_TEST: Neu5Ac(a2-6)Gal(b1-4)GlcNAc(b1-3)Gal(b1-4)GlcNAc(b1-3)Gal(b1-4)GlcNAc(b1-2)Man(a1-3)[Neu5Ac(a2-6)Gal(b1-4)GlcNAc(b1-3)Gal(b1-4)GlcNAc(b1-3)Gal(b1-4)GlcNAc(b1-2)Man(a1-6)]GalNAc
# ASSAY_COMMENT: glycan array binding signal (z-score within array); higher = stronger binding
# TEST_SETTINGS: glycan notation: IUPAC condensed, linker removed
This is one part of a sample in which the strongest signals are shown more often than they occur.
RECORDED_METRIC: glycan array binding signal (z-score)
Answer as a number with no unit attached.

stdin: Can you look up the measured glycan array binding signal (z-score) of SP16665A-bot-344-23-344 (Bacteroides ovatus) (protein) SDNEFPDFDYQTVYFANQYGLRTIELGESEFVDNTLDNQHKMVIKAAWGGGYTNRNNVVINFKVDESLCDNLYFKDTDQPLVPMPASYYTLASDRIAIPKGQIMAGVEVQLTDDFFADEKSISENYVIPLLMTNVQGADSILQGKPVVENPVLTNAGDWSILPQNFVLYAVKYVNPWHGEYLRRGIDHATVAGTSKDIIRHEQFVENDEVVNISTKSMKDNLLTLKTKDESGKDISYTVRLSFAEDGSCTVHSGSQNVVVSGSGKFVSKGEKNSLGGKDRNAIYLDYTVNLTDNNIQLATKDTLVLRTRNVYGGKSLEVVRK for me?
stdout: -0.157
